Type: physicochemical
Details: ADC with Her2 antibody, RP-HPLC-MS
*1 amine or outer side, *2 acyl side, *3 side chain or, on linkers, in order; H or OH if unused. Where a SMILES comes first, the peptide text is derived from it. [ ]: non-standard residue; d: D form. The star is where a group is joined. Exatecan = CC[C@@]1(O)C(=O)OCc2c1cc1n(c2=O)Cc2c-1nc1cc(F)c(C)c3c1c2[C@@H](N*)CC3; Hexanoyl(6-maleimido) = O=C1C=CC(=O)N1CCCCCC(=O)*; NHCH2OCH2CO = O=C(COCN[*:1])[*:2]

Molecule	DAR
CC[C@@]1(O)C(=O)OCc2c1cc1n(c2=O)Cc2c-1nc1cc(F)c(C)c3c1c2[C@@H](NC(=O)COCNC(=O)CNC(=O)[C@H](Cc1ccccc1)NC(=O)CNC(=O)CNC(=O)CCCCCN1C(=O)C=CC1=O)CC3 [Comparative Example 14, reference compound] ({Hexanoyl(6-maleimido)}-GGFG[NHCH2OCH2CO]-Exatecan)	8.00
CCc1c2c(nc3ccc(O)cc13)-c1cc3c(c(=O)n1C2)COC(=O)[C@@]3(CC)OC(=O)N(C)CCN(C)C(=O)COCNC(=O)[C@H](CC(N)=O)NC(=O)[C@H](C)NC(=O)[C@H](C)NC(=O)CN1CCOCCN(C(=O)CCN2C(=O)C=CC2=O)CCOCC1	3.96
C=C1C[C@@H]2CC[C@@]34C[C@H]5OC6C(C[C@H]7CC[C@H](CC(=O)C[C@@H]8[C@@H](OC)[C@@H](C[C@H](O)CNC(=O)CNC(=O)[C@H](Cc9ccccc9)NC(=O)CNC(=O)CNC(=O)CCC(=O)N9CCOCCN(C(=O)CCN%10C(=O)C=CC%10=O)CCOCC9)O[C@H]8C[C@H]8O[C@@H](CC[C@@H]1O2)C[C@@H](C)C8=C)O[C@@H]7[C@@H]6O3)[C@H]5O4	3.92

---

Experiment: Polymer (high molecular component) content of antibody-drug conjugates by SE-HPLC
Type: physicochemical
Details: ADC with Her2 antibody
*1 amine or outer side, *2 acyl side, *3 side chain or, on linkers, in order; H or OH if unused. Where a SMILES comes first, the peptide text is derived from it. [ ]: non-standard residue; d: D form. The star is where a group is joined. ξ: configuration not given here. Exatecan = CC[C@@]1(O)C(=O)OCc2c1cc1n(c2=O)Cc2c-1nc1cc(F)c(C)c3c1c2[C@@H](N*)CC3; X2 = CO[C@@H]([C@H]1CCCN1[*:1])[C@@H](C)C(=O)[*:2]; ξDil = CC[C@H](C)C([C@@H](CC(=O)[*:2])OC)N(C)[*:1]; Propanoyl(3-maleimido) = O=C1C=CC(=O)N1CCC(=O)*; X1 = O=C(CN1CCOCCN([*:1])CCOCC1)[*:2]; PABC = O=C(OCc1ccc(N[*:1])cc1)[*:2]; NHCH2OCH2CO = O=C(COCN[*:1])[*:2]; X3 = C[C@@H](N*)[C@@H](O)c1ccccc1; NMeV = CN[C@H](C(=O)O)C(C)C
Endpoint name: Polymer content (%)

Compound	Observed
C=C1C[C@@H]2CC[C@@]34C[C@H]5OC6C(O[C@H]7CC[C@H](CC(=O)C[C@@H]8[C@@H](OC)[C@@H](C[C@H](O)CNC(=O)OCc9ccc(NC(=O)[C@H](CCCNC(N)=O)NC(=O)[C@@H](NC(=O)CN%10CCOCCN(C(=O)CCN%11C(=O)C=CC%11=O)CCOCC%10)C(C)C)cc9)O[C@H]8C[C@H]8O[C@@H](CC[C@@H]1O2)C[C@@H](C)C8=C)O[C@@H]7[C@@H]6O3)[C@H]5O4 [Example 87]	1.12
C=C1C[C@@H]2CC[C@@]34C[C@H]5OC6C(O[C@H]7CC[C@H](CC(=O)C[C@@H]8[C@@H](OC)[C@@H](C[C@H](O)CNC(=O)CNC(=O)[C@H](Cc9ccccc9)NC(=O)CNC(=O)CNC(=O)CCN9C(=O)C=CC9=O)O[C@H]8C[C@H]8O[C@@H](CC[C@@H]1O2)C[C@@H](C)C8=C)O[C@@H]7[C@@H]6O3)[C@H]5O4 [Comparative Example 12, reference compound]	13.18
CC[C@H](C)C([C@@H](CC(=O)N1CCC[C@@H]1[C@H](OC)[C@@H](C)C(=O)N[C@H](C)[C@@H](O)c1ccccc1)OC)N(C)C(=O)[C@@H](NC(=O)[C@H](C(C)C)N(C)C(=O)OCc1ccc(NC(=O)CNC(=O)[C@H](Cc2ccccc2)NC(=O)CNC(=O)CNC(=O)CCN2C(=O)C=CC2=O)cc1)C(C)C (stereo partly drawn) [Comparative Example 8, reference compound] ({Propanoyl(3-maleimido)}-GGFG[PABC][NMeV]V[ξDil][X2]-X3)	12.37
CC[C@@]1(O)C(=O)OCc2c1cc1n(c2=O)Cc2c-1nc1cc(F)c(C)c3c1c2[C@@H](NC(=O)COCNC(=O)CNC(=O)[C@H](Cc1ccccc1)NC(=O)CNC(=O)CNC(=O)CN1CCOCCN(C(=O)CCN2C(=O)C=CC2=O)CCOCC1)CC3 [Example 22] ({Propanoyl(3-maleimido)}-[X1]GGFG[NHCH2OCH2CO]-Exatecan)	0.76
CCc1c2c(nc3ccc(O)cc13)-c1cc3c(c(=O)n1C2)COC(=O)[C@@]3(CC)OC(=O)N(C)CCN(C)C(=O)COCNC(=O)CNC(=O)[C@H](Cc1ccccc1)NC(=O)CNC(=O)CNC(=O)CCN1C(=O)C=CC1=O [Comparative Example 6, reference compound]	13.74
CC[C@@]1(O)C(=O)OCc2c1cc1n(c2=O)Cc2c-1nc1cc(F)c(C)c3c1c2[C@@H](NC(=O)COCNC(=O)CNC(=O)CNC(=O)CNC(=O)CN1CCOCCN(C(=O)CCN2C(=O)C=CC2=O)CCOCC1)CC3 [Example 28]	0.56

---

Assay: Stability (placement) test of ADCs at 40° C. in dark for 14 days, DAR and polymer content
Format: physicochemical
Details: Day 0, 40° C. in dark
*1 amine or outer side, *2 acyl side, *3 side chain or, on linkers, in order; H or OH if unused. Where a SMILES comes first, the peptide text is derived from it. [ ]: non-standard residue; d: D form. The star is where a group is joined. Exatecan = CC[C@@]1(O)C(=O)OCc2c1cc1n(c2=O)Cc2c-1nc1cc(F)c(C)c3c1c2[C@@H](N*)CC3; Propanoyl(3-maleimido) = O=C1C=CC(=O)N1CCC(=O)*; X1 = O=C(CN1CCOCCN([*:1])CCOCC1)[*:2]; NHCH2OCH2CO = O=C(COCN[*:1])[*:2]
Endpoint name: Polymer content (%)

Molecule	Observed
CC[C@@]1(O)C(=O)OCc2c1cc1n(c2=O)Cc2c-1nc1cc(F)c(C)c3c1c2[C@@H](NC(=O)COCNC(=O)CNC(=O)[C@H](Cc1ccccc1)NC(=O)CNC(=O)CNC(=O)CN1CCOCCN(C(=O)CCN2C(=O)C=CC2=O)CCOCC1)CC3 [Example 22] ({Propanoyl(3-maleimido)}-[X1]GGFG[NHCH2OCH2CO]-Exatecan)	0.76
CCc1c2c(nc3ccc(O)cc13)-c1cc3c(c(=O)n1C2)COC(=O)[C@@]3(CC)OC(=O)N(C)CCN(C)C(=O)COCNC(=O)[C@H](CC(N)=O)NC(=O)[C@H](C)NC(=O)[C@H](C)NC(=O)CN1CCOCCN(C(=O)CCN2C(=O)C=CC2=O)CCOCC1	0.56

---

Assay: Stability (placement) test of ADCs at 40° C. in dark for 14 days, DAR and polymer content
Assay type: physicochemical
Settings: Day 14, 40° C. in dark
Endpoint name: Polymer content (%)

Smiles data	Observed
CCc1c2c(nc3ccc(O)cc13)-c1cc3c(c(=O)n1C2)COC(=O)[C@@]3(CC)OC(=O)N(C)CCN(C)C(=O)COCNC(=O)[C@H](CC(N)=O)NC(=O)[C@H](C)NC(=O)[C@H](C)NC(=O)CN1CCOCCN(C(=O)CCN2C(=O)C=CC2=O)CCOCC1	0.58

---

Experiment: Stability (placement) test of ADCs at 40° C. in dark for 14 days, DAR and polymer content
Format: physicochemical
Conditions: Day 7, 40° C. in dark
Collected DAR values appear next to each entry.
Endpoint name: DAR

Smiles data	Observed
C=C1C[C@@H]2CC[C@@]34C[C@H]5OC6C(O[C@H]7CC[C@H](CC(=O)C[C@@H]8[C@@H](OC)[C@@H](C[C@H](O)CNC(=O)OCc9ccc(NC(=O)[C@H](CCCNC(N)=O)NC(=O)[C@@H](NC(=O)CN%10CCOCCN(C(=O)CCN%11C(=O)C=CC%11=O)CCOCC%10)C(C)C)cc9)O[C@H]8C[C@H]8O[C@@H](CC[C@@H]1O2)C[C@@H](C)C8=C)O[C@@H]7[C@@H]6O3)[C@H]5O4	3.87
C=C1C[C@@H]2CC[C@@]34C[C@H]5OC6C(O[C@H]7CC[C@H](CC(=O)C[C@@H]8[C@@H](OC)[C@@H](C[C@H](O)CNC(=O)CNC(=O)[C@H](Cc9ccccc9)NC(=O)CNC(=O)CNC(=O)CN9CCOCCN(C(=O)CCN%10C(=O)C=CC%10=O)CCOCC9)O[C@H]8C[C@H]8O[C@@H](CC[C@@H]1O2)C[C@@H](C)C8=C)O[C@@H]7[C@@H]6O3)[C@H]5O4	4.06
